target: Caspase-6 (Homo sapiens, UniProt P55212); experiment: Caspase-6 progress curve inhibition assay; conditions: second-order rate constant; Ac-DEVD-AMC substrate; Pipes buffer pH 7.2
Sequence (P55212 24-179 limits assumed): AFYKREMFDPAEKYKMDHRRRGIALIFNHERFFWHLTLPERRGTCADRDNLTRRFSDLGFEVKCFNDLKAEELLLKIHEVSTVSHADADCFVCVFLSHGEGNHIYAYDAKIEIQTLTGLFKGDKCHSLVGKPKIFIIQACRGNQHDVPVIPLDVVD
Sequence (P55212 194-293 limits assumed): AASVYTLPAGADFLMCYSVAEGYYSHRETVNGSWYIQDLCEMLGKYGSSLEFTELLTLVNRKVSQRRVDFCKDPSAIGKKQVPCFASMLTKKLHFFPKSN
Give k2 Caspase-6 for every item shown.

Solved cases (2 shown):
[
  {
    "compound": "CC[C@H](C)[C@H](NC(=O)OCc1ccccc1)C(=O)N[C@@H](CCC(=O)O)C(=O)N[C@H](C(=O)NN(CC(=O)O)C(=O)/C=C/C(=O)N(C)Cc1ccccc1)[C@@H](C)O (relative stereo)",
    "k2 Caspase-6": "45,900 M^−1s^−1"
  },
  {
    "compound": "CC(C)[C@H](NC(=O)[C@H](CCC(=O)O)NC(=O)[C@H](CC(=O)O)NC(=O)OCc1ccccc1)C(=O)NN(CC(=O)O)C(=O)/C=C/C(=O)NCc1ccccc1 (relative stereo)",
    "k2 Caspase-6": "3,210 M^−1s^−1"
  }
]

The following compounds each have a reported value; give each one's k2 Caspase-6.
1. CC(C)C[C@H](NC(=O)OCc1ccccc1)C(=O)N[C@@H](CCC(=O)O)C(=O)N[C@H](C(=O)NN(CC(=O)O)C(=O)/C=C/C(=O)NCCc1ccccc1)[C@@H](C)O (relative stereo)
2. CCOC(=O)/C=C/C(=O)N(CC(=O)O)NC(=O)[C@@H](NC(=O)[C@H](CCC(=O)O)NC(=O)[C@@H](NC(=O)OCc1ccccc1)[C@@H](C)CC)[C@@H](C)O (relative stereo)
3. CC(C)C[C@H](NC(=O)OCc1ccccc1)C(=O)N[C@@H](CCC(=O)O)C(=O)N[C@H](C(=O)NN(CC(=O)O)C(=O)/C=C/C(=O)N(C)CCc1ccccc1)[C@@H](C)O (relative stereo)
4. CC(C)[C@H](NC(=O)[C@H](CCC(=O)O)NC(=O)[C@H](CC(=O)O)NC(=O)OCc1ccccc1)C(=O)NN(CC(=O)O)C(=O)/C=C/C(=O)NCCc1ccccc1 (relative stereo)
5. CC(C)C[C@H](NC(=O)OCc1ccccc1)C(=O)N[C@@H](CCC(=O)O)C(=O)N[C@H](C(=O)NN(CC(=O)O)C(=O)/C=C/C(=O)NCc1ccc(F)cc1)[C@@H](C)O (relative stereo)
6. CC[C@H](C)[C@H](NC(=O)OCc1ccccc1)C(=O)N[C@@H](CCC(=O)O)C(=O)N[C@H](C(=O)NN(CC(=O)O)C(=O)/C=C/C(=O)NCc1ccccc1)[C@@H](C)O (relative stereo)

1: 2,150 M^−1s^−1; 2: 88,700 M^−1s^−1; 3: 2,550 M^−1s^−1; 4: 3,470 M^−1s^−1; 5: 3,100 M^−1s^−1; 6: 16,800 M^−1s^−1

Where do these numbers come from? They come from patent US7482379B2.
